# Test system: M14 melanoma
# measurement.notes: NCI-60 one-dose screen, 48 h
# condition.notes: 10 µM unless noted
Compounds without any hit were thinned out: in the full panel of roughly 83,000, 20% have a hit. Activity calls are given as the source filed them. The calls were made as follows: active = growth percent below 10; inactive = the rest.
Pick from active, inactive when you respond.

Cc1ccc(C(=O)c2ccc(CC(=O)N=Nc3c(O)[nH]c4ccc(OC(F)(F)F)cc34)n2C)cc1: inactive
C=C1C(=O)O[C@@H]2[C@H]3[C@H](COC(C)=O)[C@@H](OC(C)=O)C[C@H]3C(=C)[C@@H](O)C[C@@H]12: inactive
CCOc1ccccc1NC(=O)c1cc2ccccc2cc1O: inactive
CCN(CC)CC(=O)Nc1ccc2ncnc(Nc3ccc(Oc4cccc(F)c4)c(Cl)c3)c2c1: active

Turning now to a further compound:
Returns: the outcome recorded for "O=C(/C=C/c1ccc([N+](=O)[O-])cc1)c1ccccc1" in this assay. inactive
